All figures here come from paper PMC11249646.

Biological target: CIB1 and αIIb interaction (CIB1-GST : F-αIIb peptide) (Homo sapiens)
Construct: made in house; host or cells: BL-21 plus RIL cells (E. coli)
Sequence (Q99828 1-191): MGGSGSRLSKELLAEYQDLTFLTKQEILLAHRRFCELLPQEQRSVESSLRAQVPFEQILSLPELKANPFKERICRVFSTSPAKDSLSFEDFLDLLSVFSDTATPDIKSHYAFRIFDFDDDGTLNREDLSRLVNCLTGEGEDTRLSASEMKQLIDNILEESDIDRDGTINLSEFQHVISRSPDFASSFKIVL
Assay: FP assay, 1536-well qHTS format (primary and confirmatory screen)
Type: binding
Details: Table S3, confirmatory screen; read-out: IC50 [μM] (confirmatory screen)
Measured IC50 of individual entries
Experimental Endpoint: IC50 (µM)

# Mol, Experimental Endpoint, Measured Value
rows = [
    ("CO[C@H](C(=O)[C@@H](O)[C@@H](C)O)[C@@H]1Cc2cc3cc(C[C@H]4C[C@H](O[C@H]5C[C@@H](O)[C@H](O)[C@@H](C)O5)[C@@H](O)[C@@H](C)O4)c(C)c(O)c3c(O)c2C(=O)[C@H]1O[C@@H]1C[C@H](O[C@@H]2C[C@H](O[C@@H]3C[C@](O)(CO)[C@@H](O)[C@H](C)O3)[C@@H](O)[C@H](C)O2)[C@@H](O)[C@H](C)O1", "IC50", 31.6),
    ("OC[C@H]1O[C@@H](Oc2ccc(O)c3cccc(O)c23)[C@H](O)[C@@H](O)[C@@H]1O", "IC50", 11.2),
]
